Target: T1, Hmm-hTFRC (REGN2431), monomeric human transferrin receptor ectodomain with N-terminal hexahistidine-myc-myc … (human, UniProt P02786 89-760)
T1 construct: also called hmm.hTfR(C89-F763); His-myc-myc-hTFRC ecto
T1 sequence (P02786 other isoform, or with tags, fused parts or gaps): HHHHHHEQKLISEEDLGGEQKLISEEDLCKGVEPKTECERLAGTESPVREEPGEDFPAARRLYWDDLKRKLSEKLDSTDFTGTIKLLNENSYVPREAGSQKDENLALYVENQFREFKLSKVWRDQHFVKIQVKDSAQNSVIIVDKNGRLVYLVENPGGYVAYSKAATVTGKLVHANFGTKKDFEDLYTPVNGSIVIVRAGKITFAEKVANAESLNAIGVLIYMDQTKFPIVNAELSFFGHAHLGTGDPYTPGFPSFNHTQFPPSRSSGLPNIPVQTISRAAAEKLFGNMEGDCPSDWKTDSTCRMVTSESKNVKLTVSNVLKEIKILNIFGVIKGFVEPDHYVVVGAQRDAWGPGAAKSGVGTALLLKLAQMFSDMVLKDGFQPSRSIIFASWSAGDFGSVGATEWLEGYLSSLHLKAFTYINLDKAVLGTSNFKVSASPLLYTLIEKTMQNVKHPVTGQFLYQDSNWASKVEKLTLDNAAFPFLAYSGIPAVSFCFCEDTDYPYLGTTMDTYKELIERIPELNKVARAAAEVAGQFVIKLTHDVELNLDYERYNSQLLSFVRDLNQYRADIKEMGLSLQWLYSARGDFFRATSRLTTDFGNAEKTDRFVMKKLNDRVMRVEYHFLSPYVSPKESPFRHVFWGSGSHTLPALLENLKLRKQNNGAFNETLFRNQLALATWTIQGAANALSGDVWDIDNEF
Test: blocking ELISA, supernatant; Hmm-hTFRC binding to immobilized human holo-Tf
readout_label: % Blocking (%)
Provide only the numeric value, understood in %.

12808B Fab (Fab, V domains shown, CHO supernatant) VH: QLQLQESGPGLVKPSETLSLTCTVSGESISSNTYYWGWIRQPPGKGLEWIGSIDYSGTTNYNPSLKSRVTISVDTSRNHFSLRLRSVTAADTAVYYCAREWGNYGYYYGMDVWGQGTTVTVSS VL: DIQMTQSPSSLSASVGDRVTINCRASQGIRNDLGWYQQKPGKAPKRLIYAASSLQSGVPLRFSGSGSGTEFTLTINNLQPEDFATYYCLSHNSYPWTFGQGTKVEIKR ... 16

[in] Consider the binder 69340 Fab (Fab, V domains shown, CHO supernatant) VH: EVQLVESGGGLVQPGRSLRLSCAASGFTFDDKAMHWVRQVPGKGLEWISGISWNSGTIGYADSVKGRFIISRDNAKNSLYLQMNSLRAEDTALYYCAKDGDTSGWYWYGLDVWGQGTTVTVSS VL: EIVLTQSPATLSLSPGERATLSCRASQSVSSYLAWYQQKPGQAPRLLIHDVSNRATGIPARFSGSGSGTDFTLTISSLEPEDFVVYYCQQRSDWPITFGQGTRLEIKR and give its recorded % Blocking.
[out] 3

[in] Identify measured % Blocking corresponding to 69331 scFv (VH-VK) (scFv) QVQLVESGGGVVQPGRSLRLSCIASGFTFSVYGIHWVRQAPGKGLEWMAVISHDGNIKHYADSVKGRFTISRDNSKNTLYLQINSLRTEDTAVYYCAKDTWNSLDTFDIWGQGTMVTVSSDIQLTQSPSSLSASVGDRVTITCWASQGISSYLAWYQQKPGKAPKLLIYAASTLQSGVPSRFSGSGSGTEFTLTISSLQPEDFATYYCQQLNSYPLTFGGGTKVEIK
[out] 7
